Values of pIC50 reported for Jak2 tyrosine kinase (Homo sapiens (Human)) appear below.
Units for pIC50: none; it is -log10 of a concentration expressed in mol/L.

Query for Jak2 tyrosine kinase (Homo sapiens (Human)): what pIC50 does the record show for Cc1c(-c2ccc(C(N)=O)c3[nH]c4cc(C(C)(C)O)ccc4c23)cccc1-n1c(=O)cc2c(F)cccn2c1=O ? 6.06

Query for Jak2 tyrosine kinase (Homo sapiens (Human)): what pIC50 does the record show for Cc1c(-c2ccc(C(N)=O)c3[nH]c4cc(C(C)(C)O)ccc4c23)cccc1-n1c(=O)cc2c(Cl)cccn2c1=O (atropisomer, axis not shown) ? 6.00

Query for Jak2 tyrosine kinase (Homo sapiens (Human)): what pIC50 does the record show for Cn1c(=O)n(-c2cccc(-c3ccc(C(N)=O)c4[nH]c5cc(C(C)(C)O)ccc5c34)c2Cl)c(=O)c2cccc(F)c21 ? 5.92

Query for Jak2 tyrosine kinase (Homo sapiens (Human)): what pIC50 does the record show for Cc1c(-c2ccc(C(N)=O)c3[nH]c4cc(C(C)(C)O)ccc4c23)cccc1-n1c(=O)[nH]c2c(F)cccc2c1=O (single isomer, unassigned) [Example 2] ? 6.07

Query for Jak2 tyrosine kinase (Homo sapiens (Human)): what pIC50 does the record show for Cc1c(-c2ccc(C(N)=O)c3[nH]c4cc(C(C)(C)O)ccc4c23)cccc1-n1c(=O)[nH]c2c(F)cccc2c1=O (single isomer, unassigned) [Example 1] ? 5.92
